- Tested on: NOMO1
- testSummary: cell viability relative to DMSO control; higher = less cytotoxic
- measurementConditions: RPMI 5 mM glucose + 10% FBS; 48 h; 5.12 µM
Recorded cell viability values for a group of compounds are listed next.
Output spec: scalar in %, unitless text.

# compound, unitOfMeasure, readoutValue
measured = [
    ("CCCCCN(CCC12CC3CC(CC(C3)C1)C2)C(=O)NCCCc1ccncc1", "%", 96.5),
]

Task: Quick one: cell viability of `CC(C)(C)OC(=O)Nc1ccc(-c2cc(C(=O)NCCCCCCC(=O)NO)no2)cc1` ?
Result: 67.1

Task: Endpoint output: cell viability of `CC(C)n1cnc2c(NCCc3ccc(O)cc3)nc(-c3csc4ccccc34)nc21` . Value?
Result: 119

Task: Fill in the blank: the reported cell viability of `CC1=C(/C=C/C(C)=C/C=C/C(C)=C/C(=O)O)C(C)(C)CCC1` is ____.
Result: 94

Task: Recorded cell viability of `Cc1cnc(Nc2ccc(N3CCN(C)CC3)cc2)nc1Nc1cccc([S+](=O)([O-])NC(C)(C)C)c1` , please.
Result: 77.8

Task: cell viability lookup needed for `CCCCc1nc2cc(/C=C/C(=O)NO)ccc2n1CCN(CC)CC` , thanks.
Result: 28.6

Task: Entry under review: `CC(C)(C)C1=CC(=C(NC(=O)C/2=C/NC3=C(C=CC=C3)C2=O)C=C1O)C(C)(C)C` . Reported cell viability?
Result: 114

Task: For the compound shown here, CC(S)C(=O)NCC(=O)O (stereo unspecified) , give the reported cell viability.
Result: 114

Task: Requested read-out: cell viability. Entry: `Cc1cccc(-c2[nH]c(C(C)(C)C)nc2-c2ccc3c(c2)OCO3)n1`
Result: 86.3

Task: Look up cell viability for this compound: `Oc1c(Cl)cc(Cl)c2cccnc12`
Result: 84.8

Task: What value of cell viability has been reported for the following compound? `CS[C@H]1SC[C@@H]2C(=O)N(C)[C@H](C(C)C)C(=O)OC[C@H](NC(=O)c3cnc4ccccc4n3)C(=O)N[C@H](C)C(=O)N(C)[C@H]1C(=O)N(C)[C@H](C(C)C)C(=O)OC[C@H](NC(=O)c1cnc3ccccc3n1)C(=O)N[C@H](C)C(=O)N2C`
Result: 5.48

----------
- Tested on: SEM cells
- testSummary: cell viability relative to DMSO control; higher = less cytotoxic
- measurementConditions: HPLM + 10% dialyzed FBS; 48 h; 0.569 µM
Reported cell viability is given for each of the following compounds.
A number alone suffices; assume %.

# compound, targetOrTestSystem, measurementType, readoutValue
data = [
    ("COc1ccc([S+](=O)([O-])Nc2cccnc2Nc2ccc(O)cc2)cc1", "SEM cells", "cell viability", 123),
]

Task: What value of measured cell viability is listed for CC(C)CC(N(C)C)C1(c2ccc(Cl)cc2)CCC1 (stereo not drawn) ?
Result: 126

Task: Bench note: what cell viability did OC[C@H]1OC(OC2=CC3=C(C(=C2)O)C(=O)\C(=C/O3)C4=CC=C(O)C=C4)[C@H](O)[C@@H](O)[C@@H]1O (stereo partly drawn) show?
Result: 69.7

Task: Returns the measured cell viability for the input compound. Input: `C1CN\2C[C@@H](\N=C2S1)C3=CC=CC=C3`
Result: 100

Task: I would be grateful if you could share the reported cell viability for `O=C1CCCC(=O)C1C(=O)c1ccc(C(F)(F)F)cc1[N+](=O)[O-]` .
Result: 114

----------
- Test system: NOMO1
- testSummary: cell viability relative to DMSO control; higher = less cytotoxic
- measurementConditions: RPMI 5 mM glucose + 10% FBS; 48 h; 0.0632 µM
Listed here: items and their measured cell viability.
Number first, unit second: that is the form wanted.

Before answering, review these 5 worked examples.
# compound, measurementType, readoutValue
rows = [
    ("COC(=O)C/1=C(C)/N/C(=C(\\C1C2=CC(=CC=C2)[N+]([O-])=O)C(=O)OCCCN3CCC(CC3)(C4=CC=CC=C4)C5=CC=CC=C5)C (stereo not drawn)", "cell viability", "97.7%"),
    ("Cc1ccc(-c2cc(C(F)(F)F)nn2-c2ccc([S+](N)(=O)[O-])cc2)cc1", "cell viability", "126%"),
    ("COc1ccc([S+](=O)([O-])Nc2cccnc2Nc2ccc(O)cc2)cc1", "cell viability", "121%"),
    ("CC(C)(C)OC(=O)Nc1ccc(-c2cc(C(=O)NCCCCCCC(=O)NO)no2)cc1", "cell viability", "85.3%"),
    ("CCOC(=O)N[C@@H]1CC[C@@H]2[C@@H](C1)C[C@H]1C(=O)O[C@H](C)[C@H]1[C@H]2/C=C/c1ccc(-c2cccc(F)c2)cn1", "cell viability", "127%"),
]

Task: Which cell viability reading was recorded for the compound C[N+]1(C)[C@@H]2CC(OC(=O)C(O)(c3cccs3)c3cccs3)C[C@H]1[C@@H]1O[C@@H]12 (stereo partly drawn) ?
Result: 102%

Task: Give its cell viability value. Item: `CC(C)c1c(C(=O)Nc2ccccc2)c(-c2ccccc2)c(-c2ccc(F)cc2)n1CC[C@@H](O)C[C@@H](O)CC(=O)[O-]`
Result: 88.2%

Task: Which cell viability value is on record for `C[C@H]1Oc2cc(cnc2N)-c2c(nn(C)c2C#N)CN(C)C(=O)c2ccc(F)cc21` ?
Result: 119%

Task: Which measured cell viability value corresponds to `Oc1ccc(-c2ccc(-c3cc(Nc4cccc(CNC5CC5)c4)[nH]n3)cc2)c(O)c1` ?
Result: 115%

Task: Query (compound): `N=C(N)Nc1ccc(C(=O)Oc2ccc3cc(C(=N)N)ccc3c2)cc1` ; field requested: cell viability
Result: 90.8%

Task: cell viability lookup needed for CCC(C1CCC(C)C(O1)C(C)C(O)C(C)C(=O)C(CC)C2OC\3(O[C@]4(CC[C@@](C)(O4)C5CC[C@@](O)(CC)C(C)O5)C(O)\C=C3)C(C)CC2C)C([O-])=O (stereo partly drawn) , thanks.
Result: 114%

Task: Value lookup for cell viability; key = `Cc1cccc(-c2[nH]c(C(C)(C)C)nc2-c2ccc3c(c2)OCO3)n1`
Result: 101%

Task: Request the reported cell viability associated with `Cc1nc(N)ncc1-c1nc(N2CCOCC2)c2sc(C(C)(C)O)cc2n1`
Result: 106%

----------
- Test system: SEM cells
- testSummary: cell viability relative to DMSO control; higher = less cytotoxic
- measurementConditions: HPLM + 10% dialyzed FBS; 48 h; 5.12 µM
# Lookup of reported cell viability keyed by entry
The answer is to be given in %; state only the numeric part.

# molecule, unitOfMeasure, readoutValue
measured = [
    ("COC(=O)C/1=C(C)/N/C(=C(\\C1C2=CC(=CC=C2)[N+]([O-])=O)C(=O)OCCCN3CCC(CC3)(C4=CC=CC=C4)C5=CC=CC=C5)C (stereo not drawn)", "%", 90.3),
    ("NC[C@H]1O[C@H](O[C@H]2[C@H](O)[C@@H](O[C@H]3O[C@H](CO)[C@@H](O)[C@H](N)[C@H]3O)[C@H](N)C[C@@H]2N)[C@H](N)C[C@@H]1O", "%", 101),
    ("O=C(NCC1CCOCC1)c1cnc(Nc2ccc(Cl)cc2Cl)nc1C(F)(F)F", "%", 99.5),
    ("OCCN(CCO)c1nc(N2CCCCC2)c2nc(N(CCO)CCO)nc(N3CCCCC3)c2n1", "%", 99.3),
    ("CO[C@@H]1[C@@H](O)[C@H](O)[C@@H](n2c3c(Cl)cccc3c3c4c(c5c6cccc(Cl)c6[nH]c5c32)C(=O)NC4=O)O[C@H]1CO", "%", 9.51),
    ("C=CC(=O)Nc1ccc2ncnc(Nc3ccc(OCc4cccc(F)c4)c(Cl)c3)c2c1", "%", 77.5),
    ("COc1cc2c(Nc3ccc(Cl)c(Cl)c3F)ncnc2cc1OC[C@@H]1C[C@@H]2CN(C)C[C@@H]2C1", "%", 87.8),
]

Turning now to a further molecule:
Task: Any idea what cell viability was measured for `CC(C)Cn1cnc2c(N)nc3ccccc3c21` ?
Result: 102

----------
- Tested on: NOMO1
- testSummary: cell viability relative to DMSO control; higher = less cytotoxic
- measurementConditions: HPLM + 10% dialyzed FBS; 48 h; 0.0632 µM
Overview of reported cell viability across a group of compounds:
Answer in %, number only, no unit symbol.

Worked cases, cell viability given:
# compound, cell viability [%]
records = [
    ("Cc1ccc([S+](=O)([O-])Nc2cc(Cl)ccc2C(=O)Nc2nc(-c3ccccc3)cs2)cc1", 121),
    ("Cn1cnc([N+](=O)[O-])c1Sc1ncnc2nc[nH]c12", 109),
]

Task: Find the recorded cell viability belonging to `N=C(N)NC(=N)N1CCOCC1` and report it.
Result: 106

Task: GET /values?readout=cell viability&item= `Nc1nc(N)c(N=O)c(OCC2CCCCC2)n1`
Result: 94.5

Task: Returns the measured cell viability for the input compound. Input: NC(CO)C(=O)NNCc1ccc(O)c(O)c1O (stereo not drawn)
Result: 107

Task: What does the data say about its cell viability? Entry: `CC1=C(/C=C/C(C)=C/C=C/C(C)=C/C(=O)O)C(C)(C)CCC1`
Result: 114

Task: What does the record list as cell viability for `CCOC(=O)O[C@]1(C(=O)OCCl)CC[C@H]2[C@@H]3CCC4=CC(=O)C=C[C@]4(C)[C@H]3[C@@H](O)C[C@@]21C` ?
Result: 103

Task: # query: cell viability of entry `CCCCCN(CCC12CC3CC(CC(C3)C1)C2)C(=O)NCCCc1ccncc1`
Result: 115
